Origin of measurements: patent US20230183291A1

target: T1, Biotinylated Human ACE2, His, Avitag protein (ACROBiosystems, AC2-H82E6) (human, UniProt Q9BYF1 18-740); assay: SPR single cycle kinetics, ACE2 captured on CAP chip, peptide analyte; geometric mean; * Rmax set to 10
T1 construct: also called biotinylated ACE2; ACE2 protein; not shown: His tag and Avitag
T1 sequence (Q9BYF1 18-740 limits assumed): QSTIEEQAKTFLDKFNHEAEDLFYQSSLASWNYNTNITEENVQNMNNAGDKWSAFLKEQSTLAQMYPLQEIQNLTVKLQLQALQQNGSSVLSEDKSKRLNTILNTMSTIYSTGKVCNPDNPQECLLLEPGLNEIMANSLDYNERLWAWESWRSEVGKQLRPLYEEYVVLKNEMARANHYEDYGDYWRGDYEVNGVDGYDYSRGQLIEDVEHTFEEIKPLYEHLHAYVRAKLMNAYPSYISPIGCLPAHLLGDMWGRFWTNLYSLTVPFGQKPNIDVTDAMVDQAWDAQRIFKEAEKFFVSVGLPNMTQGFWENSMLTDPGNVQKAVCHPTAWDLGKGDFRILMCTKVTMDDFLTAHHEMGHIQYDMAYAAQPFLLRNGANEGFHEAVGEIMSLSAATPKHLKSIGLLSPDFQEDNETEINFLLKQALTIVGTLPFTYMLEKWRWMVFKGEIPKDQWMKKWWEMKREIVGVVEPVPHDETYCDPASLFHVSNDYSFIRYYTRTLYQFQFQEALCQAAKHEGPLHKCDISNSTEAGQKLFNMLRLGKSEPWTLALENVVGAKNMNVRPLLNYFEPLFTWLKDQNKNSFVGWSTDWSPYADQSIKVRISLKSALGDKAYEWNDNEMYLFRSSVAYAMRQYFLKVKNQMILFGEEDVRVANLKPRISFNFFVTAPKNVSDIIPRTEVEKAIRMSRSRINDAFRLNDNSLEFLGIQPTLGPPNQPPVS
Numbered stars: 1 amine (or outer) side, 2 acyl side, 3 side chain; on linkers, the order of the positions; unused ones are H or OH. Bridge positions count the residues as written; N and C are the ends. Square brackets hold non-standard residues; d marks the D form. Ends that are not written are not given here. Hse(Me) = O-methyl-homoserine, COCC[C@H](N[*:1])C(=O)[*:2]; TATA = O=C(CC[*:1])N1CN(C(=O)CC[*:2])CN(C(=O)CC[*:3])C1; Hyp = O=C(O)[C@@H]1C[C@@H](O)CN1; hArg = N=C(N)NCCCC[C@H](N)C(=O)O; PYA = propargyl-acid
Threshold check on Kd: strictly below 20 nM is condition met; on or above 20 nM is condition not met.

Please review the following examples before continuing.
>>> class("Ac-CNAVLCSWA[hArg]ANSFC (linker 1-6-15 via TATA, bicyclic peptide, TATA scaffold) [BCY18259]")
"condition not met"
>>> class("Ac-CNTVLCGWARANSLCK(PYA) (linker 1-6-15 via TATA, bicyclic peptide, TATA scaffold) [BCY18550]")
"condition met"
>>> class("Ac-CNTVLCGWA[hArg]ANSLCK(PYA) (linker 1-6-15 via TATA, bicyclic peptide, TATA scaffold) [BCY18551]")
"condition met"
>>> class("Ac-CNTVLCGWA[hArg]ANSLCAK(PYA) (linker 1-6-15 via TATA, bicyclic peptide, TATA scaffold) [BCY18549]")
"condition not met"
>>> class("Ac-CNRVLCAWATANS[Hse(Me)]CK(PYA) (linker 1-6-15 via TATA, bicyclic peptide, TATA scaffold) [BCY18349]")
"condition not met"

We next turn to a different binder, shown below.
Incoming: Does the reported Kd of the following binder sit strictly below 20 nM? Ac-CN[Hyp]VLCSWA[hArg]ANSFC (linker 1-6-15 via TATA, bicyclic peptide, TATA scaffold) [BCY18210]
Outgoing: condition not met
